Form field: inhibition of SARS-CoV-2 cytopathic effect (one value per entry).
Tested on: Vero E6 infected with SARS-CoV-2
Assay Summary: inhibition of SARS-CoV-2 cytopathic effect; higher = more antiviral protection, active = above 15
Conditions Used: 1 nM; 48 h
Write it as a number; the unit % goes unstated.

// recorded inhibition of SARS-CoV-2 cytopathic effect for CCOC(=O)c1cnc2c(cnn2CC)c1NN=C(C)C [etazolate] : -0.85

// recorded inhibition of SARS-CoV-2 cytopathic effect for O=C(O[C@H]1[C@H](OC(=O)c2cccnc2)[C@@H](OC(=O)c2cccnc2)[C@H](OC(=O)c2cccnc2)[C@@H](OC(=O)c2cccnc2)[C@H]1OC(=O)c1cccnc1)c1cccnc1 [inositol-hexanicotinate] : 2.01

// recorded inhibition of SARS-CoV-2 cytopathic effect for CCN[C@H]1C[C@H](C)S(=O)(=O)c2sc(S(N)(=O)=O)cc21 [dorzolamide] : -0.7

// recorded inhibition of SARS-CoV-2 cytopathic effect for C=C1/C(=C\C=C2/CCC[C@]3(C)[C@@H]([C@H](C)CCCC(O)(C(F)(F)F)C(F)(F)F)CC[C@@H]23)C[C@@H](O)C[C@@H]1O [falecalcitriol] : -0.53

// recorded inhibition of SARS-CoV-2 cytopathic effect for CCOC(=O)C1=C[C@]2(CC)CCCN3CCc4c(n1c1ccccc41)[C@@H]32 [vinpocetine] : -3.18

// recorded inhibition of SARS-CoV-2 cytopathic effect for Cc1c(I)c(=O)n(-c2ccccc2)n1C [iodoantipyrine] : -0.48

// recorded inhibition of SARS-CoV-2 cytopathic effect for CN1C(=O)N(c2ccc(C#N)c(C(F)(F)F)c2)C(=O)[C@]1(CO)c1ccccc1 [GLPG0492-R-enantiomer] : 2.05

----------
Tested on: Vero E6 infected with SARS-CoV-2
Assay Summary: morphology score (similarity to uninfected cells); higher = more like uninfected cells
Conditions Used: 24 h
Form field: morphology score (one value per entry).
I only need the number, thanks.

Sample records with morphology score:
// recorded morphology score for CC1=CC(=C(c2ccc(N)cc2)c2ccc(N)cc2)C=CC1=N [basic-fuchsin] (0.833333 µM) : 0.163

// recorded morphology score for Nc1nonc1/C(=N/O)Nc1ccc(F)c(Cl)c1 (10 µM) : 0.043

// recorded morphology score for O=C(O)C1CSCN1 (stereo unspecified) [timonacic] (10 µM) : -0.0905

***
// recorded morphology score for C=CCn1c(=O)c2cnc(Nc3ccc(N4CCN(C)CC4)cc3)nc2n1-c1cccc(C(C)(C)O)n1 (10 µM) : -0.0169

// recorded morphology score for CCN1CCCC(OC(=O)C(c2ccccc2)c2ccccc2)C1 (stereo unspecified) [piperidolate] (10 µM) : 0.17

// recorded morphology score for CCOC(=O)[C@H](CCc1ccccc1)N[C@@H](C)C(=O)N(CC(=O)O)C1Cc2ccccc2C1 [delapril] (10 µM) : -0.0271

// recorded morphology score for C=C1/C(=C\C=C2/CCC[C@]3(C)[C@@H]([C@H](C)/C=C/[C@H](C)C(C)C)CC[C@@H]23)C[C@@H](O)C[C@@H]1O [doxercalciferol] (10 µM) : -0.0772

// recorded morphology score for O=S(=O)(/N=C/c1c(O)ccc2ccccc12)c1cccs1 (10 µM) : 0.103

// recorded morphology score for CCN1C[C@H](C)n2c(c(O)c3c(=O)n(Cc4ccc(F)c(Cl)c4)nc(C(=O)NC)c32)C1=O (10 µM) : 0.0188
